// values below are reported % Inhibition @ Concentration 0.1 uM
Test system: AMPA-R
Assay: [3H]AMPA radioligand binding assay on rat brain synaptic membranes
Conditions: Table 8, 0.1 uM
e = 2'-O-(2-methoxyethyl) (MOE); k = constrained ethyl (cEt); d = 2'-deoxy (DNA); m = 2'-O-methyl; f = 2'-fluoro
MEASURED METRIC: % Inhibition @ Concentration 0.1 uM (%)

ASGSCMAFCFUFUMUSNM [RG-NG-1036]	19.2
ASGSCSASCSUSUSUSGS [RG-NG-1001]	41.9
ASGSCMAFCFUFUMUSDM [RG-NG-1037]	11.1
ASGSCMAFCFUFUMUSAM [RG-NG-1038]	17.9
ASGSCMAFCFUFUMUSGS [RGLS4326, reference compound]	−0.1
ASCSAMAFUFGFCMASCS [RG5124, reference compound]	−8.6
GSCEAECETEGSTEADASGSCMAFCFUFUMUSGS (GCACTGTAAGCACUUUG; sugars from the 5' end keeeekedkkmfffmkk, backbone and methylation of C not given here) [RG-NG-1032]	24.3
ASGSCMAFCFUFUMUSED [RG-NG-1039]	27.3
CETEGSCEAECETEGSTEADASGSCMAFCFUFUMUSGS (CTGCACTGTAAGCACUUUG; sugars from the 5' end eekeeeekedkkmfffmkk, backbone and methylation of C not given here) [RG-NG-1040]	10.4
ASGSCMAFCFUFUMUSIM [RG-NG-1035]	27.2
ASGSCMAFCFUFUMUSAS [RG-NG-1015]	−0.8
ASGSCMAFCFUFUMUSGD [RG-NG-1033]	44.9
ASGSCMAFCFUFUMUSGM [RG-NG-1034]	14.3

---

System: AMPA-R
Assay: [3H]AMPA radioligand binding assay on rat brain synaptic membranes
Conditions: Experiment #3, 0.1 uM
// values below are reported % Inhibition @ 0.1 uM
MEASURED METRIC: % Inhibition @ 0.1 uM (%)

TEAASGSCMAFCFUFUMUSCS (TAAGCACUUUC; 2'-MOE at 1, cEt at 3, 4, 10, 11, 2'-O-methyl at 5, 9, 2'-fluoro at 6, 7, 8, other sugars and backbone not given here) [RG-NG-1021]	−2
ASGSCMAFCFUFUMUSGS [RGLS4326, reference compound]	14.6
ASCSTGSUSAASGSCMAFCFUFUMUSCS (ACTGUAAGCACUUUC; cEt at 1, 2, 4, 5, 7, 8, 14, 15, 2'-O-methyl at 9, 13, 2'-fluoro at 10, 11, 12, other sugars and backbone not given here) [RG-NG-1019]	12.9
ASGSCSASCSUSUSUSGS [RG-NG-1001]	59.4
AFGSCMAFCFUFUMUSGE [RG-NG-1023]	3.1
TEGSTEAASGSCMAFCFUFUMUSCS (TGTAAGCACUUUC; anti-miR; 2'-MOE at 1, 3, cEt at 2, 5, 6, 12, 13, 2'-O-methyl at 7, 11, 2'-fluoro at 8, 9, 10, other sugars and backbone not given here) [RG-NG-1020]	17

---

Target: AMPA-R
Experiment: [3H]AMPA radioligand binding assay on rat brain synaptic membranes;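 further: competition binding in which test compounds at rising concentrations displace [3H]AMPA from AMPA-R on rat brain synaptic membranes, with reduced bound radioligand as read-out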
Details: Table 8
pIC50: −log10 of the molar value.
// values below are reported pIC50
MEASURED METRIC: pIC50

ASGSCMAFCFUFUMUSAS [RG-NG-1015]	≤ 4.00
ASGSCMAFCFUFUMUSAM [RG-NG-1038]	5.08
ASCSAMAFUFGFCMASCS [RG5124, reference compound]	≤ 4.00
ASGSCMAFCFUFUMUSDM [RG-NG-1037]	≤ 4.00
